Where do the numbers come from? From patent US8183005B1.

I'd appreciate it if you could supply IC50 values for the items below.
study_target: HCV replicon
assay: HCV replicon assay (luciferase)
Format: cell-based
reported_conditions: firefly luciferase HCV replicon cells (Huh-3-1), cultured three days with compound
Numeric answer only, unit nM assumed.

Challenge: Param item = CC(C)CCOc1ccc(C[C@H](NC(=O)[C@@H](/C=C/CCCCCCC(=O)CCCCC2CCCCC2)[C@](O)(CC(=O)O)C(=O)O)C(=O)O)cc1 ; retrieve measured IC50.
Response given: 24

Challenge: Param item = CCCCCCCC(=O)CCCCCC/C=C/[C@H](C(=O)N[C@@H](Cc1ccc(OCC=C(C)C)cc1)C(=O)O)[C@@](O)(CC(=O)O)C(=O)O ; retrieve measured IC50.
Response given: 72
